# target.of.assay: Aryl hydrocarbon receptor (Homo sapiens) (UniProt P35869)
# Sequence (P35869 whole entry, looked up): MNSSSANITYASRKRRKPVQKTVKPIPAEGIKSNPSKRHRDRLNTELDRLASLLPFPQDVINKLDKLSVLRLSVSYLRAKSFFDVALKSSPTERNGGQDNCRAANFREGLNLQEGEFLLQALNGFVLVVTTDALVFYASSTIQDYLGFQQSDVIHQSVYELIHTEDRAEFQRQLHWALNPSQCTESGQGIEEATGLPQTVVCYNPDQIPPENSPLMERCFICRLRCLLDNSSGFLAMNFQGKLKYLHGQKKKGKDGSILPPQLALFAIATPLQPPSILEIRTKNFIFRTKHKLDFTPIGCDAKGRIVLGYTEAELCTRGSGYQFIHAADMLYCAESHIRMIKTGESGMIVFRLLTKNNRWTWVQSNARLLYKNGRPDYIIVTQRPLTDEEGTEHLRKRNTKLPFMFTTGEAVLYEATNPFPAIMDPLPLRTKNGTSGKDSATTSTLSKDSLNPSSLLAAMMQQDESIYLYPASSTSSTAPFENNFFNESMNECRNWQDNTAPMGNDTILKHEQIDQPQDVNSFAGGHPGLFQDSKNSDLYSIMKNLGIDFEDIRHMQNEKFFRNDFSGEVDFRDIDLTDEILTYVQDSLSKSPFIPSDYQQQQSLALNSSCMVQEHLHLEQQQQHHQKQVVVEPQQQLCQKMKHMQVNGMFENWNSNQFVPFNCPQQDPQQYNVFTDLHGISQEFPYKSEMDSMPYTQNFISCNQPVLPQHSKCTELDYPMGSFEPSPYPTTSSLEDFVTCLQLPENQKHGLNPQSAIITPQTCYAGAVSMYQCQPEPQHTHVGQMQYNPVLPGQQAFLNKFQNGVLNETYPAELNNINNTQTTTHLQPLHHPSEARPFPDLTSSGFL
# test.details: qHTS assay to identify small molecule that activate the aryl hydrocarbon receptor (AhR) signaling pathway (AID 743085);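 further: HG2L7.5c1 human HepG2 liver cells with stably integrated DRE-driven firefly reporter; nearly all actives have a fitted effect of over 15% in size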
# study.conditions: HepG2 AhR-luc (HG2L7.5c1), luciferase, 24 h; series mostly up to 70.3 µM
Records with an inconclusive call do not appear. Activity calls are given as the source filed them. The call rests on the fitted dose curve; in most records, active means well fitted activation curve with a large enough effect in the repeat runs; inconclusive means weak or mixed curves; inactive means no such curve, though single readings can be large or run the other way.
measured.property: outcome

Below, each entry is followed by its recorded outcome result.
{"columns": ["compound", "target.of.assay", "outcome"],
 "data": [
  ["CCOC(=O)c1ccc(O)cc1", "Aryl hydrocarbon receptor (Homo sapiens) (UniProt P35869)", "inactive"],
  ["C[Si](C)(C)N[Si](C)(C)C", "Aryl hydrocarbon receptor (Homo sapiens) (UniProt P35869)", "inactive"],
  ["OCC(O)CS (stereo not given)", "Aryl hydrocarbon receptor (Homo sapiens) (UniProt P35869)", "inactive"],
  ["COCN(COC)c1nc(N(COC)COC)nc(N(COC)COC)n1", "Aryl hydrocarbon receptor (Homo sapiens) (UniProt P35869)", "inactive"],
  ["CN1Cc2c(N)cccc2C(c2ccccc2)C1 (stereo not given)", "Aryl hydrocarbon receptor (Homo sapiens) (UniProt P35869)", "inactive"]
]}

Query string: Sample O=C1O[C@H]([C@H](O)CO)C(O)=C1O — what was its outcome?
Result string: inactive

Query string: Sample CCCCCCC(=O)O — what was its outcome?
Result string: inactive

Where do the numbers come from? From PubChem BioAssay (Tox21).
